- TESTED TARGET: ERG-ETS domain (Homo sapiens, UniProt P11308)
- Construct: A pET28a plasmid encoding residues 307–400 of the ERG-ETS domain; His6 (cleaved yes); made in house; host or cells: E. coli BL21 (λDE3)
- Sequence (P11308 307-400): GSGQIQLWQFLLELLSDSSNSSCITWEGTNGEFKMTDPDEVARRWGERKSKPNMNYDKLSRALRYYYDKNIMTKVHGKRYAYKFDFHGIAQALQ
- PROCEDURE DETAILS: NMR-monitored titration (15N-HSQC) with ERG-ETS domain
- PARTICULARS: 15N-HSQC titration, 1:1 binding isotherm; pH 6.5; read-out: KD for interaction with recombinant ERG-ETS domain
pKd: −log10 of the molar value.
OBSERVATION TYPE: pKd

>>> result("CC(C)c1ccc(C=N/N=C2\\NC(=O)[C@@H](CC(=O)O)S2)cc1 (stereo in doubt)")
"~2.52"

* * *

- TESTED TARGET: ERG-ETS/DNA complex (Homo sapiens, UniProt P11308)
- Construct: A pET28a plasmid encoding residues 307–400 of the ERG-ETS domain; His6 (cleaved yes)
- Sequence (P11308 307-400, one chain of several): as the sequence (P11308 307-400) above
- PROCEDURE DETAILS: EMSA competition, purified ERG-ETS domain and dsDNA
- PARTICULARS: 4 nM ERG-ETS domain, 1 nM dsDNA, read-out: KI, disruption of ERG-ETS/DNA complex formation
pKi: −log10 of the molar value.
OBSERVATION TYPE: pKi

>>> result("CC(C)c1ccc(C=N/N=C2\\NC(=O)[C@@H](CC(=O)O)S2)cc1 (stereo in doubt) [VPC-18005]")
"~3.60"
